experiment: Solubility of the compound in phosphate buffer of pH 2 after 24 hrs by RP-HPLC analysis; type: physicochemical
Test Readout: solubility at 24 h (µM)

A = CCCCS(=O)(=O)Nc1cc(C(C)C)c2sc(NC(=O)NC)c(C(N)=O)c2c1
B = CNC(=O)Nc1sc2c(C(C)C)cc(NS(=O)(=O)c3cc(C)cs3)cc2c1C(N)=O
[Q] Returns the identifier with the smallest measured solubility at 24 h among A and B . Provide the label of your selected option as the answer.
[A] B

###

test: Solubility of the compound in phosphate buffer of pH 7.4 after 24 hrs by RP-HPLC analysis; format: physicochemical; settings: phosphate buffer, pH 7.4
Test Readout: solubility at 24 h (µM)

In the examples that follow, each entry is paired with its recorded solubility at 24 h.
Mol Smiles: CCCCS(=O)(=O)Nc1cc(C(C)C)c2sc(NC(=O)NC)c(C(N)=O)c2c1
solubility at 24 h (µM): 4.6

Mol Smiles: CCCS(=O)(=O)Nc1cc(C(C)C)c2sc(NC(=O)NC)c(C(N)=O)c2c1
solubility at 24 h (µM): 3

Mol Smiles: CNC(=O)Nc1sc2c(C(C)C)cc(NS(=O)(=O)c3cc(C)cs3)cc2c1C(N)=O
solubility at 24 h (µM): 1.4

A = CNC(=O)Nc1sc2c(C(C)C)cc(NS(=O)(=O)c3ccco3)cc2c1C(N)=O
B = CNC(=O)Nc1sc2c(C(C)C)cc(NS(=O)(=O)N(C)C)cc2c1C(N)=O
C = CNC(=O)Nc1sc2c(C(C)C)cc(NS(=O)(=O)c3ccccc3)cc2c1C(N)=O
D = CNC(=O)Nc1sc2c(C)cc(NS(=O)(=O)c3ccco3)cc2c1C(N)=O
[Q] # rank by solubility at 24 h, ascending (min first) Present the labels in the sequence the task asks for.
[A] C, D, A, B
(C: 1.7 µM, D: 3.9 µM, A: 6.7 µM, B: 13.1 µM)

a = CCS(=O)(=O)Nc1cc(C(C)C)c2sc(NC(=O)NC)c(C(N)=O)c2c1
b = CNC(=O)Nc1sc2c(C3CC3)cc(NS(=O)(=O)c3ccn(C)n3)cc2c1C(N)=O
[Q] Returns the identifier with the smallest measured solubility at 24 h among a and b . Provide the label of your selected option as the answer.
[A] b
(b: 4.8 µM, a: 13.6 µM)
